# protocol details: DPPH free radical scavenging (antioxidant) assay
# conditions used: read-out: Antioxidant Activity EC50; DPPH method, mean of three independent experiments
pEC50: −log10 of the molar value.
readout name: pEC50

# compound, bound type, numeric readout
rows = [
    ("CCN(C)C(=O)Oc1cccc(NC(=O)c2cc3cc(O)ccc3[nH]2)c1", "=", 5.08),
    ("CCN(C)C(=O)Oc1cccc(CNC(=O)c2cc3cccc(O)c3[nH]2)c1", "=", 4.69),
    ("CCN(C)C(=O)Oc1cccc(NC(=O)c2cc3cccc(O)c3[nH]2)c1", "=", 4.84),
    ("CCN(C)C(=O)Oc1cccc(CNC(=O)c2cc3ccccc3[nH]2)c1", "<", 2.70),
    ("CCN(C)C(=O)Oc1cccc(NC(=O)c2cc3ccccc3[nH]2)c1", "<", 2.70),
    ("CCN(C)C(=O)Oc1cccc(CCNC(=O)c2cc3cccc(O)c3[nH]2)c1", "=", 4.68),
    ("Cc1c(C)c2c(c(C)c1O)CCC(C)(C(=O)O)O2 (centres unmarked) [Trolox, reference compound]", "=", 4.86),
    ("CCN(C)C(=O)Oc1cccc(CCNC(=O)c2cc3ccccc3[nH]2)c1", "<", 2.70),
    ("CCN(C)C(=O)Oc1cccc(CCNC(=O)c2cc3cc(O)ccc3[nH]2)c1", "=", 5.07),
    ("CCN(C)C(=O)Oc1cccc(CNC(=O)c2cc3cc(O)ccc3[nH]2)c1", "=", 5.11),
    ("Cc1c(O)c(=O)ccn1C [Deferiprone, deferiprone, reference compound]", "=", 3.83),
]

====

# system tested: equine butyrylcholinesterase (eqBChE) (Equus caballus)
# Sequence (P81908 whole entry): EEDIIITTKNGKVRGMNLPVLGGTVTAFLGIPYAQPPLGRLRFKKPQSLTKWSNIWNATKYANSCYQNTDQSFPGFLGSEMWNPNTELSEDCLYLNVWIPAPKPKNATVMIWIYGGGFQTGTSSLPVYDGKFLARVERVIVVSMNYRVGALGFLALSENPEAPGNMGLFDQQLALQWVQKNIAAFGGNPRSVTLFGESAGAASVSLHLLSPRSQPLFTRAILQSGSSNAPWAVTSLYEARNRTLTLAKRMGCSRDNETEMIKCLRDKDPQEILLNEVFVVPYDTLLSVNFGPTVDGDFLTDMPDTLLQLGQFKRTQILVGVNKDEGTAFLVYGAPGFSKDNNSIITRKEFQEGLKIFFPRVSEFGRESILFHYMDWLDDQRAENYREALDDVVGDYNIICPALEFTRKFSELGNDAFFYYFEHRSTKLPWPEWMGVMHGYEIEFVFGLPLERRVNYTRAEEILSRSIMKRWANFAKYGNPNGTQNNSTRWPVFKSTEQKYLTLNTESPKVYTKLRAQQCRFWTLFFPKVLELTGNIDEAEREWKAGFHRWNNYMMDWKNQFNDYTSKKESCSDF
readout name: IC50 (µM)

# smiles repr, unit symbol, numeric readout
data = [
    ("CCN(C)C(=O)Oc1cccc(NC(=O)c2cc3cc(O)ccc3[nH]2)c1", "µM", 3.22),
    ("CCN(C)C(=O)Oc1cccc(CCNC(=O)c2cc3ccccc3[nH]2)c1", "µM", 14.5),
    ("CCN(C)C(=O)Oc1cccc(NC(=O)c2cc3cccc(O)c3[nH]2)c1", "µM", 10.4),
    ("CCN(C)C(=O)Oc1cccc(CNC(=O)c2cc3cccc(O)c3[nH]2)c1", "µM", 5.7),
    ("CCN(C)C(=O)Oc1cccc(NC(=O)c2cc3ccccc3[nH]2)c1", "µM", 29.9),
    ("CCN(C)C(=O)Oc1cccc(CCNC(=O)c2cc3cccc(O)c3[nH]2)c1", "µM", 14.9),
    ("CCN(C)C(=O)Oc1cccc(CCNC(=O)c2cc3cc(O)ccc3[nH]2)c1", "µM", 15.2),
    ("CCN(C)C(=O)Oc1cccc(CNC(=O)c2cc3ccccc3[nH]2)c1", "µM", 8.3),
    ("CCN(C)C(=O)Oc1cccc(CNC(=O)c2cc3cc(O)ccc3[nH]2)c1", "µM", 27.1),
]

====

# system tested: Aβ1-42 (Homo sapiens)
# Construct: purchased Genecust, Boynes, France
# Sequence (P05067 672-713 limits assumed): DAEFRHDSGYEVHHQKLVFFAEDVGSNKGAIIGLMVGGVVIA
# protocol details: Inhibition of Aβ1-42 self-aggregation, thioflavin T fluorescence
# Format: biochemical
# conditions used: Cinhibitor = 20 µM, Aβ1-42 40 µM, 37 °C, 24 h, read-out: Aβ42 Self-Aggreg. Inhib
Label true (1) when inhibition at 20 µM is at or above 30%; otherwise label false (0).

# smiles repr, category
rows = [
    ("CCN(C)C(=O)Oc1cccc(NC(=O)c2cc3ccccc3[nH]2)c1", "false (0)"),
    ("CCN(C)C(=O)Oc1cccc(CCNC(=O)c2cc3cc(O)ccc3[nH]2)c1", "true (1)"),
    ("CCN(C)C(=O)Oc1cccc(NC(=O)c2cc3cccc(O)c3[nH]2)c1", "true (1)"),
    ("CCN(C)C(=O)Oc1cccc(CCNC(=O)c2cc3cccc(O)c3[nH]2)c1", "true (1)"),
    ("CCN(C)C(=O)Oc1cccc(CNC(=O)c2cc3cccc(O)c3[nH]2)c1", "true (1)"),
    ("CCN(C)C(=O)Oc1cccc(CCNC(=O)c2cc3ccccc3[nH]2)c1", "false (0)"),
    ("CCN(C)C(=O)Oc1cccc(CNC(=O)c2cc3ccccc3[nH]2)c1", "false (0)"),
    ("CCN(C)C(=O)Oc1cccc(NC(=O)c2cc3cc(O)ccc3[nH]2)c1", "false (0)"),
]
